Recorded values, source patent US9551722B2.

TARGET: aggregated Aβ(1-42) peptides (Homo sapiens, UniProt P05067)
Construct: preaggregated Aβ(1-42) peptides
Sequence (P05067 672-713 limits assumed): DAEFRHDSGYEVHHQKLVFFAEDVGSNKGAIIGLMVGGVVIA
EXPERIMENT_DESCRIPTION: Fluorescence spectra before and after mixing with preaggregated Aβ(1-42) (Cmpds 8a-8d, 11, 14, 19)
Format: binding
RECORDED_CONDITIONS: 4 μM compound in PBS, without Aβ, 25° C.
This listing pairs compounds with measured Emission max before binding.
PARAMETER_MEASURED: Emission max before binding (nm)

# COMPOUND, VALUE_UNITS, MEASURED_VALUE
rows = [
    ("COCCOCCOCCOC(=O)/C(C#N)=C/c1ccc2cc(N3CCCCC3)ccc2c1", "nm", 462),
    ("CN(C)c1ccc(/C=C(\\C#N)C(=O)OCC(O)CO)cc1 (stereo not drawn)", "nm", 476),
    ("CCN(CC)c1ccc(C=C(C#N)C(=O)OCCOCCOCCOC)cc1 (stereo in doubt)", "nm", 478),
    ("CCCCN(CCCC)c1ccc(C=C(C#N)C(=O)OCCOCCOCCOC)cc1 (stereo in doubt)", "nm", 466),
    ("COCCOCCOCCOC(=O)/C(C#N)=C/c1ccc(N(C)C)cc1OC", "nm", 478),
    ("COCCOCCOCCOC(=O)/C(C#N)=C/c1ccc(N(C)C)cc1", "nm", 476),
]

----------
TARGET: interaction of the aggregated Aβ peptide with a monoclonal anti-Aβ IgG (Homo sapiens, UniProt P05067)
Construct: Aggregated Aβ peptides were generated from synthetic Aβ(1-42) peptides
Sequence (P05067 672-713 limits assumed): as above
EXPERIMENT_DESCRIPTION: Semi-quantitative ELISA: inhibition of IgG-Aβ fibril interactions
Type: binding
RECORDED_CONDITIONS: maximal percentage of IgG inhibited from binding to the fibrils; anti-Aβ IgG clone 6E10
We use 80% as the dividing line for Maximum % inhibition (ELISA): on or above the line is rule met, below is rule not met.

# COMPOUND, CLASSIFICATION
data = [
    ("COCCOCCOCCOC(=O)/C(C#N)=C/c1ccc(N(C)C)cc1OC [Cmpd 8b]", "rule met"),
    ("CCN(CC)c1ccc(C=C(C#N)C(=O)OCCOCCOCCOC)cc1 (stereo in doubt) [Cmpd 8c]", "rule met"),
    ("CCCCN(CCCC)c1ccc(C=C(C#N)C(=O)OCCOCCOCCOC)cc1 (stereo in doubt) [Cmpd 8d]", "rule met"),
    ("COCCOCCOCCOC(=O)/C(C#N)=C/c1ccc2cc(N3CCCCC3)ccc2c1 [Cmpd 11]", "rule not met"),
    ("COCCOCCOCCOC(=O)/C(C#N)=C/c1ccc(/C=C/c2ccc(N(C)C)cc2)cc1 [Cmpd 19]", "rule not met"),
]

----------
TARGET: aggregated Aβ(1-42) peptides (Homo sapiens, UniProt P05067)
Construct: preaggregated Aβ(1-42) peptides
EXPERIMENT_DESCRIPTION: Fluorescence spectra before and after mixing with preaggregated Aβ(1-42) (Cmpds 8a-8d, 11, 14, 19)
Format: binding
RECORDED_CONDITIONS: 4 μM compound, 5 μM aggregated Aβ(1-42)
Reported Fold increase (fluorescence intensity after binding) values are given for each entry in this list.
PARAMETER_MEASURED: Fold increase (fluorescence intensity after binding) (fold)

# COMPOUND, MEASURED_VALUE
data = [
    ("CN(C)c1ccc(/C=C(\\C#N)C(=O)OCC(O)CO)cc1 (stereo not drawn)", 2.2),
    ("COCCOCCOCCOC(=O)/C(C#N)=C/c1ccc(N(C)C)cc1", 1.8),
    ("COCCOCCOCCOC(=O)/C(C#N)=C/c1ccc(N(C)C)cc1OC", 1.3),
    ("CCN(CC)c1ccc(C=C(C#N)C(=O)OCCOCCOCCOC)cc1 (stereo in doubt)", 4.2),
    ("COCCOCCOCCOC(=O)/C(C#N)=C/c1ccc2cc(N3CCCCC3)ccc2c1", 9.3),
    ("CCCCN(CCCC)c1ccc(C=C(C#N)C(=O)OCCOCCOCCOC)cc1 (stereo in doubt)", 9.4),
]
